- Target: Beta-secretase 1 (Homo sapiens, UniProt P56817)
- Sequence (P56817 whole entry, the tested form may be a part): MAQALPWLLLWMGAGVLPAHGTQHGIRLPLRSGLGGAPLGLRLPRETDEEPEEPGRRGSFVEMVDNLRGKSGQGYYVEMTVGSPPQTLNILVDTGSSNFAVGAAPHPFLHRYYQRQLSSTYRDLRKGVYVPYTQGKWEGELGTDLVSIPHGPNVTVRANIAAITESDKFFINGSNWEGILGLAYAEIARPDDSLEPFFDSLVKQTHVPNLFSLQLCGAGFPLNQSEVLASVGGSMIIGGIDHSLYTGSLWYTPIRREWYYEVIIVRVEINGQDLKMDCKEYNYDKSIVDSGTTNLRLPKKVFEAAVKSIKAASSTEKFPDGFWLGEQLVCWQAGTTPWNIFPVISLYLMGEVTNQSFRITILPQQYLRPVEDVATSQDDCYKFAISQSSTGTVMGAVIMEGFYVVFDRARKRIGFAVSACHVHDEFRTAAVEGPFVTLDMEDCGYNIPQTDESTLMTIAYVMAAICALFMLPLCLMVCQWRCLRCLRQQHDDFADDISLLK
- Test Details: Inhibition Assay: Recombinant BACE-1 (extracellular domain, expressed in baculovirus and purified using standard methods) at 0.1 to 1 nM concentrations is incubated with the test compound at various concentrations for 1 hour at room temperature in 100 mM acetate buffer, pH 4.5, containing 0.1% CHAPS. Activity was measured using a final concentration of 3 μM of the fluorescence-quenched substrate Q-C(HSO3)-Ile-Asp-Leu-Ala-Val-Leu-Asp-HN-CH2-CH2-Mca, where Q=2-nitro-5-amino benzoic acid and Mca=7-methoxy-4-coumarinyl acetic acid. Catalytic turnover was monitored in a Spectramax Gemini fluorescence plate reader (Molecular Devices) in black 96-well microplates using excitation/emission wavelength of 325 nm and 400 nm, respectively. Fluorescence increase was followed for 15 min, in 1 minute's intervals. The fluorescence/time slopes were calculated from duplicate wells and from wells without inhibitor and the IC50 values were calculated using a logistic 4-parameter model.
pIC50: −log10 of the molar value.
Experimental Endpoint: pIC50

- Entry Smiles: "COc1cnc(C(=O)Nc2ccc(F)c([C@@]3(C)N=C(N)OCC3(F)F)n2)c(C)c1"
  Result Value: 6.57
